Experiment: Urinary excretion rate in mice
Type: in vivo, ICR male mice
Settings: mouse, sc, 20 mg/kg subcutaneous, urine up to 6 hours, bioassay
measurement.type: dose excreted at 6 h (%)
The answer is to be given in %; state only the numeric part.

Examples with their reported dose excreted at 6 h follow.
CO[C@@]1(NC(=O)[C@H](NC(=O)c2coc3cc(O)c(O)cc3c2=O)c2ccc(OCC(=O)O)cc2)C(=O)N2C(C(=O)[O-])=C(C[n+]3ccc(C(N)=O)cc3)CS[C@@H]21 ... 16
CCn1cc(C(=O)N[C@@H](C(=O)N[C@@H]2C(=O)N3C(C(=O)[O-])=C(C[n+]4ccc(C(N)=O)cc4)CS[C@H]23)c2ccc(OCC(=O)O)cc2)c(=O)c2cc(O)c(O)cc21 ... 13
Cc1oc2cc(O)c(O)cc2c(=O)c1C(=O)N[C@@H](C(=O)N[C@@H]1C(=O)N2C(C(=O)[O-])=C(C[n+]3ccccc3)CS[C@H]12)c1ccc(OCC(=O)O)cc1 ... 39
NC(=O)c1cc[n+](CC2=C(C(=O)[O-])N3C(=O)[C@@H](NC(=O)[C@H](NC(=O)c4coc5cc(O)c(O)cc5c4=O)c4ccc(OCC(=O)O)cc4)[C@H]3SC2)cc1 ... 38

Okay, next one:
Query :: What value of dose excreted at 6 h has been reported for the following compound? CO[C@@]1(NC(=O)[C@H](NC(=O)c2c(C)oc3cc(O)c(O)cc3c2=O)c2ccc(OCC(=O)O)cc2)C(=O)N2C(C(=O)[O-])=C(C[n+]3ccccc3)CS[C@@H]21
Result :: 45

====

Ser. marcescens ES-75 measurements of MIC, listed per entry.
Give your result in µg/mL as a bare value.

Past entries and their recorded results:
Cc1oc2cc(O)c(O)cc2c(=O)c1C(=O)N[C@@H](C(=O)N[C@@H]1C(=O)N2C(C(=O)[O-])=C(C[n+]3ccc(CCS(=O)(=O)O)cc3)CS[C@H]12)c1ccc(OCC(=O)O)cc1 ... 0.2
CC(=O)Oc1ccc2c(=O)c(C(=O)N[C@@H](C(=O)N[C@@H]3C(=O)N4C(C(=O)O)=C(CSc5nnnn5CC(=O)O)CS[C@H]34)c3ccc(OCC(=O)O)cc3)coc2c1OC(C)=O ... 0.8
CCOC(=O)Oc1cc2oc(C)c(C(=O)N[C@@H](C(=O)N[C@@H]3C(=O)N4C(C(=O)O)=C(COC(C)=O)CS[C@H]34)c3ccc(OCC(=O)O)cc3)c(=O)c2cc1OC(=O)OCC ... 0.8
Cc1oc2c(O)c(O)ccc2c(=O)c1C(=O)N[C@@H](C(=O)N[C@@H]1C(=O)N2C(C(=O)O)=C(CSc3nnnn3CC(=O)O)CS[C@H]12)c1ccc(OCC(=O)O)cc1 ... 0.8

Attention now turns to another entry.
Query :: May I ask what MIC has been recorded for CO[C@@]1(NC(=O)[C@H](NC(=O)c2c(C)oc3c(OC(C)=O)c(OC(C)=O)ccc3c2=O)c2ccc(OCC(=O)O)cc2)C(=O)N2C(C(=O)O)=C(CSc3nnnn3CC(=O)O)CS[C@@H]21 ?
Result :: 0.8

====

Test system: Escher. coli NIHJ
measurement.type: MIC (µg/mL)
# value in µg/mL; strip the unit string

CO[C@@]1(NC(=O)[C@H](NC(=O)c2c(C)oc3cc(OC(C)=O)c(OC(C)=O)cc3c2=O)c2ccc(OCC(=O)O)cc2)C(=O)N2C(C(=O)O)=C(CSc3nnnn3CC(=O)O)CS[C@@H]21 ... 0.4
CCn1cc(C(=O)N[C@@H](C(=O)N[C@@H]2C(=O)N3C(C(=O)O)=C(CSc4nnnn4C)CS[C@H]23)c2ccc(OCC(=O)O)cc2)c(=O)c2cc(O)c(O)cc21 ... 0.4
CO[C@@]1(NC(=O)[C@H](NC(=O)c2coc3cc(O)c(O)cc3c2=O)c2ccc(OCC(=O)O)cc2)C(=O)N2C(C(=O)O)=C(COC(C)=O)CS[C@@H]21 ... 0.8
CC(=O)OCC1=C(C(=O)O)N2C(=O)[C@@H](NC(=O)[C@H](NC(=O)c3coc4c(OC(C)=O)c(OC(C)=O)ccc4c3=O)c3ccc(OCC(=O)O)cc3)[C@H]2SC1 ... 0.8

Now look at this one.
Query :: Query (compound): CO[C@@]1(NC(=O)[C@H](NC(=O)c2c(C)oc3cc(O)c(O)cc3c2=O)c2ccc(OCC(=O)O)cc2)C(=O)N2C(C(=O)[O-])=C(C[n+]3ccccc3)CS[C@@H]21 ; field requested: MIC
Result :: 0.2
